B1: Hairpin Ribozyme (parent)
chain: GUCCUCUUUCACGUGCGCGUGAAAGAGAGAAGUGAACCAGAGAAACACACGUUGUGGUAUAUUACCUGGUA

variants of: B1; assay: self-cleavage, relative activity (ratio to wild type); higher = more cleavage; co-transcriptional
value type: self-cleavage
// response body must contain only the number

| primary sequence | self-cleavage |
| --- | --- |
| GUCCUCUUUCACGUGCGCGUGAAAGAGAGAAGUGAACCAGAGAAAGACACGUUGUGGUAUAUUACCUGGCA [C46G U70C] | 0.203 |
| GUCCUCUUUCACGUGCGCGUGAAAGAGAGAAGUGAACCAGAGAAACACACGUUGCGAUAUAUUACCUGGUA [U55C G57A] | 0.11 |
| GUCCUCUUUCACGUGCGCGUGAAAGAGAGAAGUGAACGAGAGAAACACACGUUGUUGUAUAUUACCUGGUA [C38G G56U] | 0.0935 |

QUERY: What value of self-cleavage has been recorded for this entry: GUCCUCUUUCACGUGCGCGUGAAAGAGAGAAGUGAACCAGAGAAAGACAUGUUGUGGUAUAUUACCUGGUA [C46G C50U]
RESULT: 0.185

QUERY: What value of self-cleavage has been recorded for this entry: GUCCUCUUUCACGUGCGCGCGAAAGAGAGAAGUGAACCAGAGAAACACACGUUGUGGUAUAUUACCCGGUA [U20C U67C]
RESULT: 0.2

QUERY: What value of self-cleavage has been recorded for this entry: GUCCUCUUUUACGUGCGCGUGAAAGAGAGAAGUGAACCAGAGAAACACAUGUUGUGGUAUAUUACCUGGUA [C10U C50U]
RESULT: 0.391

QUERY: What value of self-cleavage has been recorded for this entry: GUCCUCUUUCACGUGCGCGUGAAAGAGAGAAGUGAACCAGAGAAACACACGGUGUGGUAUAUUAGCUGGUA [U52G C65G]
RESULT: 0.266

QUERY: What value of self-cleavage has been recorded for this entry: GUCCGCUUUCACGUGCGCGUGAAAGAGAGAAGUGAACCAGAGAAACACACGUUGUGGUAUAUUAGCUGGUA [U5G C65G]
RESULT: 0.0535

QUERY: What value of self-cleavage has been recorded for this entry: GUCCUCUUUCACGUGCGCGUGAAAGAGAGAAGUGAACGAGAGAAACACACGUUGUGGUAUAUUACGUGGUA [C38G C66G]
RESULT: 0.0755

QUERY: What value of self-cleavage has been recorded for this entry: GUCCUCUUUCACGUGCGCGUGAAAGAGAGGAGUGAACCAGAGAAACACACGUUGUGGUACAUUACCUGGUA [A30G U60C]
RESULT: 0.252

QUERY: What value of self-cleavage has been recorded for this entry: GUCCUCUUUCACGUGCGCGUGAAAGAGAGAAGUGAACCAGAGAAACACACGUUGUGGUAUAUUACCAGGUA [U67A]
RESULT: 0.229

QUERY: What value of self-cleavage has been recorded for this entry: GUCCUCUUUCAGGUGCGCGUGAAAGAGAGAAGUGAACCAGAGAGACACACGUUGUGGUAUAUUACCUGGUA [C12G A44G]
RESULT: 0.156

QUERY: What value of self-cleavage has been recorded for this entry: GUCCUCUUUCACGUGCGCGUGAACGAGAGAAGUGAACCCGAGAAACACACGUUGUGGUAUAUUACCUGGUA [A24C A39C]
RESULT: 0.554

QUERY: What value of self-cleavage has been recorded for this entry: GUCCUCUUUCACGUGCGCGUGAAAGAGAGAAGUGAACCAGAGAGACUCACGUUGUGGUAUAUUACCUGGUA [A44G A47U]
RESULT: 0.163

QUERY: What value of self-cleavage has been recorded for this entry: GUCCUCUUUCACGUGCGCGUGAAAGAGAGAAGUGAAACAGUGAAACACACGUUGUGGUAUAUUACCUGGUA [C37A A41U]
RESULT: 0.429

QUERY: What value of self-cleavage has been recorded for this entry: GUCCUCGUUCACGUGCGCGUGAAAGAGAGAAGAGAACCAGAGAAACACACGUUGUGGUAUAUUACCUGGUA [U7G U33A]
RESULT: 0.131

QUERY: What value of self-cleavage has been recorded for this entry: GUCCUCUUUCUCGUGCGCGUGAAAGAGAGAAGUGAACCAGAGAAACACACGUUGUCGUAUAUUACCUGGUA [A11U G56C]
RESULT: 0.087

QUERY: What value of self-cleavage has been recorded for this entry: GUCCUCUUUCACGUGCGCGUGAAACAGAGAAGAGAACCAGAGAAACACACGUUGUGGUAUAUUACCUGGUA [G25C U33A]
RESULT: 0.0816

QUERY: What value of self-cleavage has been recorded for this entry: GUCCUCUUUCACGUGCGCGUGAAAGAGAGAAGUGAACCAGAGAAAUACACGUUGUAGUAUAUUACCUGGUA [C46U G56A]
RESULT: 0.138

QUERY: What value of self-cleavage has been recorded for this entry: GUCCUCUUUCCCGUUCGCGUGAAAGAGAGAAGUGAACCAGAGAAACACACGUUGUGGUAUAUUACCUGGUA [A11C G15U]
RESULT: 0.996

QUERY: What value of self-cleavage has been recorded for this entry: GUCCUCUUUCACGUGCGCGUGAAAGAGAGAAGUGAACCAGAGAAACACACGAUGUGGUAUAUGACCUGGUA [U52A U63G]
RESULT: 0.121

QUERY: What value of self-cleavage has been recorded for this entry: GUCCUCUUUCACGUGCGCGAGAAAGAGAGAAGUGAACAAGAGAAACACACGUUGUGGUAUAUUACCUGGUA [U20A C38A]
RESULT: 0.168
